Listing of entries alongside the reported PBMC pSTAT3 IC50.
target: T1, interleukin-23 receptor (IL-23R), Q5VWK5
T1 chain: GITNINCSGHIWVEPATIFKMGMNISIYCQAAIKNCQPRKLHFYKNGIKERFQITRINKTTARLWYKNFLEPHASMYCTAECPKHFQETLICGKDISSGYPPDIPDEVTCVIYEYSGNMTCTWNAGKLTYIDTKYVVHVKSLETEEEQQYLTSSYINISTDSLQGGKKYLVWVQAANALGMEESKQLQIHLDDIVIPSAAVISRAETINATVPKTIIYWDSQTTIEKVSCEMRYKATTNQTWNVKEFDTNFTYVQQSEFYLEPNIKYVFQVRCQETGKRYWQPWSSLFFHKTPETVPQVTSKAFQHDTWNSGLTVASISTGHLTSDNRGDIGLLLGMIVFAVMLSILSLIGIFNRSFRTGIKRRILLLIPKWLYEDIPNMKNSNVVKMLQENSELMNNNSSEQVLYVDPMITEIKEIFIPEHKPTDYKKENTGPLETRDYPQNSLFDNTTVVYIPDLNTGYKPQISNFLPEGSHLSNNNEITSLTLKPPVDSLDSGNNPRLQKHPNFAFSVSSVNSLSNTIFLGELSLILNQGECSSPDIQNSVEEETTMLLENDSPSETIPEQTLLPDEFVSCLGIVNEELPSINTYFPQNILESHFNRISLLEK
test-summary: cell-based or functional assay
Starred links: 1 amine or outer side, 2 acyl side, 3 side chain; linkers in the order of their positions; H or OH if unused. Positions of bridges follow the written chain, without caps; N, C: chain ends. Non-standard residues stand in square brackets, D forms with d. No end group written: not given here. X3 = 4‑(2-(4-(2-amino-2-carboxyethyl)phenoxy)ethyl)‑4‑methylmorpholin‑4‑ium, C[N+]1(CCOc2ccc(CC(N[*:1])C(=O)[*:2])cc2)CCOCC1; Trp(7-(3-AcNH-Ph)) = CC(=O)Nc1cccc(-c2cccc3c(C[C@H](N)C(=O)O)c[nH]c23)c1; 2Nal(6-OH) = N[C@@H](Cc1ccc2cc(O)ccc2c1)C(=O)O; Trp(7-Me) = Cc1cccc2c(C[C@H](N)C(=O)O)c[nH]c12; d(hLys(Me3)) = C[N+](C)(C)CCCCC[C@@H](N)C(=O)O; AEF = NCCOc1ccc(C[C@H](N)C(=O)O)cc1; 3Pal = N[C@@H](Cc1cccnc1)C(=O)O; Lipidated = not defined here; NMeK = CN[C@@H](CCCCN)C(=O)O; Pen = CC(C)(S)[C@H](N)C(=O)O; lipid = not defined here; Thp = NC1(C(=O)O)CCOCC1; PEG = not defined here; Sar = CNCC(=O)O

binder	PBMC pSTAT3 IC50
R[Pen]NT[Trp(7-Me)]K(Ac)[Pen][2‑amino‑3‑(4-(2-aminoethoxy)phenyl)propanoic acid][2‑amino‑3‑(6-hydroxynaphthalen-2-yl)propanoic acid][Thp]EN[3Pal][NMeK] (disulfide 2-7 (inferred); not fully specified (residue 14); ends not checked; also: X14 lipidated N-methyl-lysine, lipid not given here) [SEQ ID NO: 190]	< 1 nM
[Pen]NT[Trp(7-(3-AcNH-Ph))]K(Ac)[Pen][X3][2Nal(6-OH)][Thp]EN[3Pal][Sar] (disulfide 1-6 (inferred); ends not checked) [SEQ ID NO: 100]	< 0.01 nM
[Pen]NT[Trp(7-Me)]K(Ac)[Pen][AEF][2Nal(6-OH)][Thp]EN[3Pal][Sar] (not fully specified (bridges); ends and bridges not checked) [SEQ ID NO: 347]	< 0.1 nM
[(R)‑3‑carboxy‑2‑(4-(((R)-5-carboxy-5-hydrazineylpentyl)amino)-4-oxobutanamido)‑N,N,N‑trimethylpropan‑1‑aminium][Pen]NT[Trp(7-Me)]K(Ac)[Pen][2‑amino‑3‑(4-(2-aminoethoxy)phenyl)propanoic acid][2‑amino‑3‑(6-hydroxynaphthalen-2-yl)propanoic acid][Thp]EN[3Pal][NMeK](lipid) (disulfide 2-7 (inferred); not fully specified; ends not checked) [SEQ ID NO: 168]	< 1 nM
[d(hLys(Me3))][Pen]NT[Trp(7-Me)]K(Ac)[Pen][2‑amino‑3‑(4-(2-aminoethoxy)phenyl)propanoic acid][2‑amino‑3‑(6-hydroxynaphthalen-2-yl)propanoic acid][Thp]EN[3Pal][Sar] (disulfide 2-7 (inferred); ends not checked) [SEQ ID NO: 144]	< 1 nM

Name the recorded PBMC pSTAT3 IC50 of the binder listed here: [Pen]NT[Trp(7-Me)]K(Lipidated)[Pen][2‑amino‑3‑(4-(2-aminoethoxy)phenyl)propanoic acid][2‑amino‑3‑(6-hydroxynaphthalen-2-yl)propanoic acid][Thp]K(PEG)N[3Pal][Sar] (disulfide 1-6 (inferred); ends not checked; also: lipid structure not given here, PEG size not given here) [SEQ ID NO: 200]
< 1 nM
